Reference for the values: the supplement of paper PMC9112550

Tested on: Escherichia coli TOP10
Assay: shrunken log2 fold change of peptide-encoding DNA abundance (4.5 h post-induction vs induction); higher = less antimicrobial activity (less host growth inhibition)
Conditions: time post-induction: 4.5 h; library: site-saturation at positions 5, 18, 19, 20
metric: shrunken log2 fold change

[[record]]
chain_sequence = "RRIRARPPRLPRPRPRPKIIPRP"
endpoint_result = -0.287

[[record]]
chain_sequence = "RRIRPRPPRLPRPRPRPNRGPRP"
endpoint_result = 0.0424

[[record]]
chain_sequence = "RRIRPRPPRLPRPRPRPDHYPRP"
endpoint_result = -0.203

[[record]]
chain_sequence = "RRIRDRPPRLPRPRPRPSAWPRP"
endpoint_result = 0.123

[[record]]
chain_sequence = "RRIRCRPPRLPRPRPRPHKKPRP"
endpoint_result = 0.242

[[record]]
chain_sequence = "RRIRKRPPRLPRPRPRPLQMPRP"
endpoint_result = -0.0261

[[record]]
chain_sequence = "RRIRMRPPRLPRPRPRPMQTPRP"
endpoint_result = -0.00202

[[record]]
chain_sequence = "RRIRPRPPRLPRPRPRPYGCPRP"
endpoint_result = -0.0896

[[record]]
chain_sequence = "RRIRMRPPRLPRPRPRPCGFPRP"
endpoint_result = 0.0233

[[record]]
chain_sequence = "RRIRGRPPRLPRPRPRPLFGPRP"
endpoint_result = 0.584

[[record]]
chain_sequence = "RRIRLRPPRLPRPRPRPPFLPRP"
endpoint_result = 0.105

[[record]]
chain_sequence = "RRIRERPPRLPRPRPRPVPFPRP"
endpoint_result = -0.229

[[record]]
chain_sequence = "RRIRHRPPRLPRPRPRPCFWPRP"
endpoint_result = -0.0857

[[record]]
chain_sequence = "RRIRPRPPRLPRPRPRPPDYPRP"
endpoint_result = -0.107

[[record]]
chain_sequence = "RRIRLRPPRLPRPRPRPFYNPRP"
endpoint_result = -0.584

[[record]]
chain_sequence = "RRIRRRPPRLPRPRPRPIFLPRP"
endpoint_result = 0.0228

[[record]]
chain_sequence = "RRIRNRPPRLPRPRPRPVAFPRP"
endpoint_result = -0.119

[[record]]
chain_sequence = "RRIRPRPPRLPRPRPRPYPNPRP"
endpoint_result = -0.159

[[record]]
chain_sequence = "RRIRCRPPRLPRPRPRPEHEPRP"
endpoint_result = 0.188

[[record]]
chain_sequence = "RRIRFRPPRLPRPRPRPQMTPRP"
endpoint_result = -0.169

[[record]]
chain_sequence = "RRIRCRPPRLPRPRPRPYVKPRP"
endpoint_result = -0.647

[[record]]
chain_sequence = "RRIRDRPPRLPRPRPRPLFPPRP"
endpoint_result = -0.116

[[record]]
chain_sequence = "RRIRDRPPRLPRPRPRPMIDPRP"
endpoint_result = 0.141

[[record]]
chain_sequence = "RRIRCRPPRLPRPRPRPKFEPRP"
endpoint_result = 0.00386


---

Tested on: Escherichia coli TOP10;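 also: peptides expressed intracellularly from a pBAD plasmid library in pooled LB shake-flask culture, induced with 0.3% L-arabinose, DNA abundance read by NGS, three biological replicates, DESeq2 with apeglm shrinkage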
Assay: shrunken log2 fold change of peptide-encoding DNA abundance (4.5 h post-induction vs induction); higher = less antimicrobial activity (less host growth inhibition)
Conditions: time post-induction: 4.5 h; library: site-saturation at positions 5, 18, 19, 20
Rule: Met for shrunken log2 fold change not less than 0.1, Not met for anything less.

[[record]]
chain_sequence = "RRIRNRPPRLPRPRPRPRACPRP"
answer_label = "Not met"

[[record]]
chain_sequence = "RRIRYRPPRLPRPRPRPPRCPRP"
answer_label = "Not met"

[[record]]
chain_sequence = "RRIRLRPPRLPRPRPRPSRGPRP"
answer_label = "Not met"

[[record]]
chain_sequence = "RRIRERPPRLPRPRPRPEYWPRP"
answer_label = "Met"

[[record]]
chain_sequence = "RRIRPRPPRLPRPRPRPHLCPRP"
answer_label = "Not met"

[[record]]
chain_sequence = "RRIRFRPPRLPRPRPRPAKGPRP"
answer_label = "Met"

[[record]]
chain_sequence = "RRIRNRPPRLPRPRPRPCDWPRP"
answer_label = "Not met"

[[record]]
chain_sequence = "RRIRTRPPRLPRPRPRPYLLPRP"
answer_label = "Not met"

[[record]]
chain_sequence = "RRIRDRPPRLPRPRPRPYGCPRP"
answer_label = "Met"

